meta.source: PubChem BioAssay (NCI)

test-details: NCI Yeast Anticancer Drug Screen. Data for the mec2-1 strain (AID 157)
condition-description: S. cerevisiae mec2-1 strain, at 50.0 µM, stronger effect = higher value
Compounds without any hit were thinned out: in the full panel of roughly 79,000, 15% have a hit.
Below: a set of entries, each annotated with reported growth inhibition.
Respond with the bare value in %.

Here is how some compounds turned out for growth inhibition.
| compound | growth inhibition [%] |
| --- | --- |
| COc1ccc(/C=N/NC(=O)COCC(=O)N/N=C/c2ccc(OC)cc2)cc1 | -47.7 |
| COc1ccc(Nc2cc(Cl)ccc2C(=O)O)cn1 | 0.6 |
| CC(=O)C[n+]1ccc(C)cc1Sc1ccccc1C | -18.1 |
| CC1(C)CCC(C)(C)NC(=S)N1 | -8.35 |
| C=CCC(OC(C)=O)c1ccc(C(C)C)cc1 (configuration not stated) | 0.9 |

Input line: // query growth inhibition value for entry "Cc1ccc(N)c(S(=O)(=O)O)c1"
Output line: 4.35

Input line: // query growth inhibition value for entry "O=C(O)c1cc(I)ccc1O"
Output line: -0.3

====

test-details: NCI Yeast Anticancer Drug Screen. Data for the bub3 strain (AID 167)
condition-description: S. cerevisiae bub3 mutant strain, at 50.0 µM, stronger effect = higher value
About 79,000 compounds went through this panel and 15% of them were active in at least one assay; those are over-represented in the sample as a whole. Calls of active or inactive are those of the source. Rule as the data show it: active = growth inhibition above about 70%; inactive = the rest.
measured-property: growth inhibition

Here is how some compounds turned out for growth inhibition.
| compound | val |
| --- | --- |
| O=C(O)c1ccc(OCc2ccccc2)cc1 | -28.1% (inactive) |
| O=C1NC(=O)C(c2ccccc2)O1 (configuration not stated) | 18.8% (inactive) |
| O=C(OCc1ccccc1)n1nnc2ccccc21 | 19.2% (inactive) |

Input line: // query growth inhibition value for entry "NNC(=O)c1ccccc1N"
Output line: -2% (inactive)

Input line: // query growth inhibition value for entry CC1CN(CCO)CC(C)O1 (configuration not stated)
Output line: -1.15% (inactive)

Input line: // query growth inhibition value for entry "CCOC(=O)c1c(C)[nH]c(C)c1C=O"
Output line: 52.5% (inactive)

Input line: // query growth inhibition value for entry "CC(C)(N)CO[C@H]1C[C@H]2CC[C@@]1(C)C2(C)C"
Output line: 10.2% (inactive)

====

test-details: NCI Yeast Anticancer Drug Screen. Data for the sgs1 mgt1 strain (AID 161);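 further: 0% = growth of cultures given vehicle only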
condition-description: S. cerevisiae sgs1 mgt1 strain, at 50.0 µM, stronger effect = higher value
Compounds without any hit were thinned out: in the full panel of roughly 79,000, 15% have a hit.
measured-property: growth inhibition (%)
Respond with the bare value in %.

Here is how some molecules turned out for growth inhibition.
| molecule | measured-property | val |
| --- | --- | --- |
| COc1cc(OC)c2cc(C(=O)c3ccc(C#N)cc3)c(=O)oc2c1 | growth inhibition | 25.1 |
| Cc1onc(-c2ccccc2Cl)c1C(=O)Cl | growth inhibition | -13.2 |
| O=C(O)c1cc(I)ccc1O | growth inhibition | -1.25 |
| OC(CCN1CCCCC1)(c1ccccc1)c1ccccc1 | growth inhibition | -41.5 |
| CCOP(=O)(OCC)/C(=C\N1C(=O)CC(=O)NC1=S)C(=O)OC | growth inhibition | -18.9 |
| Nc1cc2ccccc2c(O)c1O | growth inhibition | 39.1 |

Input line: // query growth inhibition value for entry Oc1ccc(CCC2CCNc3ccccc32)cc1 (stereo not drawn)
Output line: -14.2

Input line: // query growth inhibition value for entry "COC(=O)c1ccc([N+](=O)[O-])c(C)c1"
Output line: -50.2

Input line: // query growth inhibition value for entry CC1CCC(C)(C)c2ccccc21 (stereo not drawn)
Output line: -2.5

====

test-details: NCI Yeast Anticancer Drug Screen. Data for the sgs1 mgt1 strain (AID 161);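 further: 0% = growth of cultures given vehicle only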
condition-description: S. cerevisiae sgs1 mgt1 strain, at 50.0 µM, stronger effect = higher value
About 79,000 compounds went through this panel and 15% of them were active in at least one assay; those are over-represented in the sample as a whole.
Mark N for growth inhibition values under -10%, and Y for everything at or above.

Input line: Would you say "C1C[S+]2CC[S+]1CC2" shows growth inhibition at minimum -10%?
Output line: Y

Input line: Would you say "C=C(OC(C)=O)c1ccccc1" shows growth inhibition at minimum -10%?
Output line: Y

Input line: Would you say NC(CSSCC(N)C(=O)O)C(=O)O (stereo not given) shows growth inhibition at minimum -10%?
Output line: Y

Input line: Would you say "Clc1ncnc2nc[nH]c12" shows growth inhibition at minimum -10%?
Output line: Y

Input line: Would you say O=S(Cc1ccccc1)/C(=C/NC(=S)Nc1cc(Cl)ccc1Cl)c1ccccc1 (stereo not given) shows growth inhibition at minimum -10%?
Output line: Y

Input line: Would you say "O=[N+]([O-])c1c(Cl)ncnc1Cl" shows growth inhibition at minimum -10%?
Output line: N

Input line: Would you say "Clc1ccc(-c2noc(/C=C\c3ccccc3)n2)cc1" shows growth inhibition at minimum -10%?
Output line: Y

Input line: Would you say O=C(O)C1CCCN1C(=O)OCc1ccccc1 (stereo not given) shows growth inhibition at minimum -10%?
Output line: N

====

Below: a set of entries, each annotated with reported growth inhibition.
test-details: NCI Yeast Anticancer Drug Screen. Data for the mec2-1 strain (AID 157)
condition-description: S. cerevisiae mec2-1 strain, at 50.0 µM, stronger effect = higher value
Compounds without any hit were thinned out: in the full panel of roughly 79,000, 15% have a hit.
Respond with the bare value in %.

Here is how some compounds turned out for growth inhibition.
| compound | reading-unit | growth inhibition |
| --- | --- | --- |
| CC(C)c1ncc([N+](=O)[O-])n1C | % | 2.9 |
| COc1cccc(C(=O)NNC(=O)c2cccc3ccccc23)c1 | % | -59.1 |
| COCC(N)=O | % | -17.9 |
| Cc1cc(Cc2ccccc2)c(O)c(Cc2ccccc2)c1 | % | 3.3 |
| Cc1[nH]n(-c2ccccc2)c(=O)c1C=NC(=S)C(N)=S | % | -22.9 |
| Cc1ccc(S(=O)(=O)Oc2ccc3sc4c(CO)ccc(NCCN(C)C)c4c(=O)c3c2)cc1 | % | 26.4 |
| Oc1cccc(CNC2CCCCC2)c1 | % | 0.25 |
| Cc1[nH]nc(C(N)=O)c1[N+](=O)[O-] | % | 4.95 |
| O=c1nc(Nc2cccc(Cl)c2)oc2cc(Cl)oc(=O)c12 | % | 26 |
| Cc1c(Cl)cccc1NC(=S)NC(=O)c1ccccc1 | % | 28.2 |

Input line: // query growth inhibition value for entry "Cn1c(=O)[nH]c2ccccc2c1=O"
Output line: 4.5

Input line: // query growth inhibition value for entry "CC(=O)c1cccc(N(C)S(=O)(=O)c2ccc(C)cc2)c1"
Output line: 7.1

Input line: // query growth inhibition value for entry CC(=O)OCC1OC(n2cnc3c(=S)nc(N)[nH]c32)C(OC(C)=O)C1OC(C)=O (stereo unspecified)
Output line: 42

Input line: // query growth inhibition value for entry "COC(=O)C1=C(C)C(=O)CC1"
Output line: -1.5

====

test-details: NCI Yeast Anticancer Drug Screen. Data for the rad50 strain (AID 155);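 further: 0% = growth of vehicle-only cultures of the same strain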
condition-description: S. cerevisiae rad50 strain growth inhibition; at 50.0 µM; stronger effect = higher value
About 79,000 compounds went through this panel and 15% of them were active in at least one assay; those are over-represented in the sample as a whole.
measured-property: growth inhibition (%)
Respond with the bare value in %.

| compound | growth inhibition, % |
| --- | --- |
| CC(O)C(F)(F)C(F)(F)C(F)(F)F (stereo not drawn) | 7.8 |

Input line: // query growth inhibition value for entry CSCCC(NC(=O)C(Cl)Cl)C(=O)O (stereo not drawn)
Output line: -31.6

====

test-details: NCI Yeast Anticancer Drug Screen. Data for the bub3 strain (AID 167)
condition-description: S. cerevisiae bub3 mutant strain, at 50.0 µM, stronger effect = higher value
This is part of a sample that, as a whole, favours compounds with a hit. Of some 79,000 tested, about 15% had one in any assay.
Below: a set of entries, each annotated with reported growth inhibition.
Respond with the bare value in %.

Here is how some compounds turned out for growth inhibition.
| compound | measured-property | val |
| --- | --- | --- |
| CCNc1ccc2ccccc2c1N=Nc1ccc(N=Nc2ccccc2)cc1 | growth inhibition | -12.7 |
| CSc1cnc2ccccc2n1 | growth inhibition | -0.85 |
| CC1(c2ccccc2)CO1 (stereo not drawn) | growth inhibition | -14.9 |
| S=C=Nc1ccc2ccccc2c1 | growth inhibition | 2.35 |
| Cc1cccc(-[n+]2noc(N)n2)c1 | growth inhibition | 1.95 |

Input line: // query growth inhibition value for entry "O=C(Nc1cccc(Cl)c1)c1ccc(Cl)cc1Cl"
Output line: 20.6

Input line: // query growth inhibition value for entry "CC(=O)Nc1ccc(C(=O)c2ccc(S(=O)(=O)Nc3ccccc3)cc2)cc1"
Output line: 6.05

Input line: // query growth inhibition value for entry "CN(C)c1ncnc2c1cnn2C"
Output line: -0.7

Input line: // query growth inhibition value for entry CS(=O)CC(=N\O)/C(CS(C)=O)=N\O (stereo not drawn)
Output line: -2.8

Input line: // query growth inhibition value for entry "CSc1nc2[nH]ncc2c(=O)[nH]1"
Output line: -3.05

Input line: // query growth inhibition value for entry "CC(=O)NNC(=S)N/C=C/c1c(C)ccc([N+](=O)[O-])c1[N+](=O)[O-]"
Output line: -36

Input line: // query growth inhibition value for entry "Cc1c(Cl)cccc1NC(=S)NC(=O)c1ccccc1"
Output line: 35.4

Input line: // query growth inhibition value for entry "OC(CCN1CCCCC1)(c1ccccc1)c1ccccc1"
Output line: -20.2
